# Measured On: Tyrosine-protein kinase Tec (Homo sapiens, UniProt P42680)
# Sequence (P42680 whole entry): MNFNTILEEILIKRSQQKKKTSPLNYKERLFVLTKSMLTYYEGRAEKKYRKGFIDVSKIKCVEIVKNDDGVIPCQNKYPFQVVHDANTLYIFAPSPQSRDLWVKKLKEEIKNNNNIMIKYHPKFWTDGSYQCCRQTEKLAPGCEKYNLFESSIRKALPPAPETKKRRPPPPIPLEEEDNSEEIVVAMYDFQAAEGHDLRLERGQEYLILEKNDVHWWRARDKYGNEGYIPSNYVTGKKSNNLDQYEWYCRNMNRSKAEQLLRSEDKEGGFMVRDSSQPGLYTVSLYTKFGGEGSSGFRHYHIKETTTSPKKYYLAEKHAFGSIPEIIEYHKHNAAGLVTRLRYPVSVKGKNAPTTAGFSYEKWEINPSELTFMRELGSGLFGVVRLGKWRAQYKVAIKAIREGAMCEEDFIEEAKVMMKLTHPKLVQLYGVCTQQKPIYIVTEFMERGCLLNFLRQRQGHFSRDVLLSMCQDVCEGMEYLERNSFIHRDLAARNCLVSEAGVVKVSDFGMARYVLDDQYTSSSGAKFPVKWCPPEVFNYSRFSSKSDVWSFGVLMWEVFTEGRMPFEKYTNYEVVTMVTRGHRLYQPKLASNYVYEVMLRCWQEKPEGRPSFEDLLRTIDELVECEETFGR
Calls of active or inactive are those of the source.
Outcome codes: true (1) = active, false (0) = inactive

Molecule	Measured On	Group
C[C@@H]1CN(Cc2ccc(F)cc2)[C@@H](C)CN1C(=O)c1cc2c(C(=O)C(=O)N(C)C)cn(C)c2cc1Cl	Tyrosine-protein kinase Tec (Homo sapiens, UniProt P42680)	false (0)
Cc1cc2c(F)c(Oc3ncnn4cc(OC[C@@H](C)OC(=O)[C@H](C)N)c(C)c34)ccc2[nH]1 [BRIVANIB ALANINATE]	Tyrosine-protein kinase Tec (Homo sapiens, UniProt P42680)	false (0)
C=CC(=O)N1CCC(Oc2cc3c(Nc4ccc(Cl)c(Cl)c4F)ncnc3cc2OC)CC1	Tyrosine-protein kinase Tec (Homo sapiens, UniProt P42680)	true (1)
CCCS(=O)(=O)Nc1ccc(F)c(C(=O)c2c[nH]c3ncc(-c4ccc(Cl)cc4)cc23)c1F	Tyrosine-protein kinase Tec (Homo sapiens, UniProt P42680)	false (0)
CO[C@H]1C[C@@H]2CC[C@@H](C)[C@@](O)(O2)C(=O)C(=O)N2CCCC[C@H]2C(=O)O[C@H]([C@H](C)C[C@@H]2CC[C@@H](OCCO)[C@H](OC)C2)CC(=O)[C@H](C)/C=C(\C)[C@@H](O)[C@@H](OC)C(=O)[C@H](C)C[C@H](C)/C=C/C=C/C=C/1C	Tyrosine-protein kinase Tec (Homo sapiens, UniProt P42680)	false (0)
CNS(=O)(=O)Nc1nccc(Cc2c(C)c3ccc(Oc4ncccn4)cc3oc2=O)c1F	Tyrosine-protein kinase Tec (Homo sapiens, UniProt P42680)	false (0)
O=C(c1ccc(F)c(F)c1Nc1ccc(I)cc1F)N1CC(O)([C@@H]2CCCCN2)C1	Tyrosine-protein kinase Tec (Homo sapiens, UniProt P42680)	false (0)
CNC(=O)CN1CCC(Oc2cc3c(Nc4cccc(Cl)c4F)ncnc3cc2OC)CC1	Tyrosine-protein kinase Tec (Homo sapiens, UniProt P42680)	false (0)
COCCNCc1ccc(-c2cc3nccc(Oc4ccc(NC(=S)NC(=O)Cc5ccc(F)cc5)cc4F)c3s2)nc1	Tyrosine-protein kinase Tec (Homo sapiens, UniProt P42680)	false (0)

* * *

# Measured On: Ribosyldihydronicotinamide dehydrogenase [quinone] (Homo sapiens, UniProt P16083)
# Sequence (P16083 whole entry): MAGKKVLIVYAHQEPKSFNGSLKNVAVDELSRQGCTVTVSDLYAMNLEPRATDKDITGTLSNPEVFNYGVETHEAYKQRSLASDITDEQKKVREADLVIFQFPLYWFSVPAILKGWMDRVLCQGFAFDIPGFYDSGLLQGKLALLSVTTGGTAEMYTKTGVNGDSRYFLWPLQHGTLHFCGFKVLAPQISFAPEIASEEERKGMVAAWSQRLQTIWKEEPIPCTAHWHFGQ
Activity calls are given as the source filed them.
Outcome codes: active, inactive

> print(dat)
                                     smiles     group
1  Cc1cc(-c2cc(O)ccc2Cl)cc2nnc(Nc3ccc(OCCN4CCCC4)cc3)nc12  inactive
2  COc1cc2nccc(Oc3ccc(NC(=O)Nc4cc(C)on4)c(Cl)c3)c2cc1OC  inactive
3  COCCNCc1ccc(-c2cc3nccc(Oc4ccc(NC(=S)NC(=O)Cc5ccc(F)cc5)cc4F)c3s2)nc1  inactive
4  C=CC(=O)N1CCC(Oc2cc3c(Nc4ccc(Cl)c(Cl)c4F)ncnc3cc2OC)CC1  inactive
5  O=C(Nc1cccc(Cl)c1)Nc1ncc(CCNc2ncnc3ccsc23)s1  inactive
6  Nc1nc(N)c2nc(-c3cccc(O)c3)c(-c3cccc(O)c3)nc2n1  inactive
7  COc1cc(OC)c(/C=C/S(=O)(=O)Cc2ccc(OC)c(NCC(=O)O)c2)c(OC)c1    active

* * *

# Measured On: Tyrosine-protein kinase Lck (Homo sapiens, UniProt P06239)
# Sequence (P06239 whole entry): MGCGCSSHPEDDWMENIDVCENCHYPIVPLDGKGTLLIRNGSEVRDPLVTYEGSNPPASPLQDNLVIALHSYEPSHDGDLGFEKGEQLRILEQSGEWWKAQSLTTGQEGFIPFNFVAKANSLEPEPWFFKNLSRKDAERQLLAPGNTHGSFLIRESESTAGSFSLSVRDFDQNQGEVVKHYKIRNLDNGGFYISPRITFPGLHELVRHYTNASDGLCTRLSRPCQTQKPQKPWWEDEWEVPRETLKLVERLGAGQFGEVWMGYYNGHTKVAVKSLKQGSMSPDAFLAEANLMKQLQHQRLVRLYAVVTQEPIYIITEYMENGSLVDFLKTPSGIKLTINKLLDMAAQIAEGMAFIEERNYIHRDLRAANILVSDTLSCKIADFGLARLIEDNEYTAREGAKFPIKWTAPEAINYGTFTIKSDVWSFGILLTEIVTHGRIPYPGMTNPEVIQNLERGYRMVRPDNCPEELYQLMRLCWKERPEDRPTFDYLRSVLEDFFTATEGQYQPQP
Active and inactive are the calls of the source.
Outcome codes: active, inactive

> print(dat)
                                   compound     group
1  COCCNCc1ccc(-c2cc3nccc(Oc4ccc(NC(=S)NC(=O)Cc5ccc(F)cc5)cc4F)c3s2)nc1 [GLESATINIB]    active
2  C1=C/COCc2cc(ccc2OCCN2CCCC2)Nc2nccc(n2)-c2cccc(c2)COC/1 [PACRITINIB]    active
3  CN1CC[C@@H](c2c(O)cc(O)c3c(=O)cc(-c4ccccc4Cl)oc23)[C@@H]1CO  inactive
4  Cc1cc(-c2cc(O)ccc2Cl)cc2nnc(Nc3ccc(OCCN4CCCC4)cc3)nc12    active
5  C[C@@H](c1ccc2nccn2c1)n1nnc2ncc(-c3cnn(C)c3)nc21 [SAVOLITINIB]  inactive

* * *

# Measured On: AP2-associated protein kinase 1 (Homo sapiens, UniProt Q2M2I8)
# Sequence (Q2M2I8 whole entry): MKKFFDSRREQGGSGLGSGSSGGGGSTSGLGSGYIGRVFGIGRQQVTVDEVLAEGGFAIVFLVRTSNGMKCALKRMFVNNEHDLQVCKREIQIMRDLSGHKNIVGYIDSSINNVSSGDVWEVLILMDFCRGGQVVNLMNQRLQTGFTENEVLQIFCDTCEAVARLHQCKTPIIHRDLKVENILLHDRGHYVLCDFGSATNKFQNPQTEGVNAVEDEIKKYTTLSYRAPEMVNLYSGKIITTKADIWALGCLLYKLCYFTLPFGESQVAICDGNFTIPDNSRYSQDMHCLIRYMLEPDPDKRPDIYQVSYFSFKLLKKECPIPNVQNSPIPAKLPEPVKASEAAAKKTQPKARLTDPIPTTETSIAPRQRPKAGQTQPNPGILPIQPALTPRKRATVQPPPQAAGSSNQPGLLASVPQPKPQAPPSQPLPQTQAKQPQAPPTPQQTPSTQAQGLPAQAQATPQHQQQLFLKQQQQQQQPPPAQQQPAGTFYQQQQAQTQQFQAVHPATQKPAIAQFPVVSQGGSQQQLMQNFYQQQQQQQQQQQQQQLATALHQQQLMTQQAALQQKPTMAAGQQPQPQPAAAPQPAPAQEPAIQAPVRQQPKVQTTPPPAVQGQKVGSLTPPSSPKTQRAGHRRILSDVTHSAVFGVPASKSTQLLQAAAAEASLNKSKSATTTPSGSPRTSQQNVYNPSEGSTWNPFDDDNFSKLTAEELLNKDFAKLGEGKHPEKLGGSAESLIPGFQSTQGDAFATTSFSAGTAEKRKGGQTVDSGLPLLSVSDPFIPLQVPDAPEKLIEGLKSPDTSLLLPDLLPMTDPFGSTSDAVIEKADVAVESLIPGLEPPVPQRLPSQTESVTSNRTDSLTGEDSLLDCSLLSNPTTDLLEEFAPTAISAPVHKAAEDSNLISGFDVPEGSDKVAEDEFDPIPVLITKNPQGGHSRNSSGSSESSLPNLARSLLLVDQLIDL
Calls of active or inactive are those of the source.
Outcome codes: TRUE = active, FALSE = inactive

> print(dat)
                                     smiles  group
1  COc1cc2nccc(Oc3ccc(NC(=O)NC4CC4)c(Cl)c3)c2cc1C(N)=O  FALSE
2  Cn1cc(-c2ccc(F)c(C(F)(F)F)c2)nc1C1CCN(c2ncnc3[nH]ncc23)CC1  FALSE
3  O=C(c1ccc(F)c(F)c1Nc1ccc(I)cc1F)N1CC(O)([C@@H]2CCCCN2)C1  FALSE
4  Cc1nc(N)sc1-c1ccnc(Nc2ccc(N3CCOCC3)cc2)n1   TRUE
5  CCc1cnn2c(NCc3ccc[n+]([O-])c3)cc(N3CCCC[C@H]3CCO)nc12  FALSE

* * *

In this section, each of the compounds is paired with its reported Kd.
# Measured On: cAMP-dependent protein kinase catalytic subunit beta (Homo sapiens)
Calls of active or inactive are those of the source.
Assay Metric: Kd

> print(dat)
                                   compound  assay.metric        result.value
1  CC(=O)Nc1cccc(-n2c(=O)n(C3CC3)c(=O)c3c(Nc4ccc(I)cc4F)n(C)c(=O)c(C)c32)c1            Kd  > 30 µM (inactive)
2  Cn1cc(-c2ccc3nnc(C(F)(F)c4ccc5ncccc5c4)n3n2)cn1            Kd  > 30 µM (inactive)
3  Cc1cc2c(F)c(Oc3ncnn4cc(OC[C@@H](C)OC(=O)[C@H](C)N)c(C)c34)ccc2[nH]1 [BRIVANIB ALANINATE]            Kd  > 30 µM (inactive)

* * *

# Measured On: Serine/threonine-protein kinase SIK2 (Homo sapiens)
# Sequence (Q9H0K1 whole entry): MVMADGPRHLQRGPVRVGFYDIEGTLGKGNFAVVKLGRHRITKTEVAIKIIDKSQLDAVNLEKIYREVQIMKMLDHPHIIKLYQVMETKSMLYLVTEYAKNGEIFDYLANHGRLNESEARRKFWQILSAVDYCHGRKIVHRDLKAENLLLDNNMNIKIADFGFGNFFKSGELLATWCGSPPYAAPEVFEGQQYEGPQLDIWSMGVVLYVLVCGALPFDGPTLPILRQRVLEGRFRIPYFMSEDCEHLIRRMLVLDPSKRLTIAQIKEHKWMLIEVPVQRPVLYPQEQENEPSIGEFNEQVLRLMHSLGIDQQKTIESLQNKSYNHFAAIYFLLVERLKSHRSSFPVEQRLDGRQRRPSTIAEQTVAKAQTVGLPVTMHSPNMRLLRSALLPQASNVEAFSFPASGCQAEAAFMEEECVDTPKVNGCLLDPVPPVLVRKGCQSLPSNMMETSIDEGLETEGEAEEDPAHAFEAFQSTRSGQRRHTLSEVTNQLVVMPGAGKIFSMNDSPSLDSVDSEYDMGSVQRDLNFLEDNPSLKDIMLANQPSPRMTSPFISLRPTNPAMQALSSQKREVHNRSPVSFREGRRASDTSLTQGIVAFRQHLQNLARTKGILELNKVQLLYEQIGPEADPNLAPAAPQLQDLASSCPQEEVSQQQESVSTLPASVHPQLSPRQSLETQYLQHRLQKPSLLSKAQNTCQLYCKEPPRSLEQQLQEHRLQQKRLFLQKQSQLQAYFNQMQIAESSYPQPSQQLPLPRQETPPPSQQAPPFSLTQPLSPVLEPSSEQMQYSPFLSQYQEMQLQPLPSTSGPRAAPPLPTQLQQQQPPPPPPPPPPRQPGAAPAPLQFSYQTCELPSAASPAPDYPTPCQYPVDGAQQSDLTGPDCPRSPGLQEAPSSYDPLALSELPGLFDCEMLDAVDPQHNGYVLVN
Activity calls are given as the source filed them.
Outcome codes: t (active), f (inactive)

> print(dat)
                                    molecule  group
 1  CC[C@H](Nc1ncnc2[nH]cnc12)c1nc2cccc(F)c2c(=O)n1-c1ccccc1      f
 2  CN1CCC(COc2cnc(-c3cccc(Cn4nc(-c5cccc(C#N)c5)ccc4=O)c3)nc2)CC1      f
 3  Cn1cc(-c2ccc3nnc(C(F)(F)c4ccc5ncccc5c4)n3n2)cn1      f
 4  CN1CCC(CNc2ccc3ncc(-c4cccc(OC(F)(F)F)c4)n3n2)CC1      t
 5  CNC(=O)c1cc(Oc2ccc(NC(=O)Nc3ccc(Cl)c(C(F)(F)F)c3)c(F)c2)ccn1      f
 6  CNC(=O)c1ccc(C)c(-n2c(C)cc(OCc3ccc(F)cc3F)c(Br)c2=O)c1      f
 7  C[C@@H](Nc1cc(F)cc(F)c1)c1cc(C(=O)N(C)C)cc2c(=O)cc(N3CCOCC3)oc12      f
 8  COc1cc(OC)c(/C=C/S(=O)(=O)Cc2ccc(OC)c(NCC(=O)O)c2)c(OC)c1      f
 9  N[C@@H]1CCCN(c2c(/C=C3\SC(=O)NC3=O)cccc2-c2ccccc2)C1      f
10  O=C(Nc1cccc(Cl)c1)Nc1ncc(CCNc2ncnc3ccsc23)s1      f
11  COc1cc(N2CCC(N3CCN(C)CC3)CC2)ccc1Nc1ncnc(Nc2ccccc2S(=O)(=O)C(C)C)n1      t
12  CNC(=O)c1ccc(-c2cnc3ncc(Cc4ccc5ncccc5c4)n3n2)cc1F      f
13  CNC(=O)CN1CCC(Oc2cc3c(Nc4cccc(Cl)c4F)ncnc3cc2OC)CC1      f
14  COc1cc(CCc2cc(NC(=O)c3ccc(N4C[C@@H](C)N[C@@H](C)C4)cc3)n[nH]2)cc(OC)c1      f
15  CN1N=C(N)c2cn([C@@H]3O[C@H](COP(=O)(O)O)[C@@H](O)[C@H]3O)c3ncnc1c23 [TRICIRIBINE PHOSPHATE]      f
16  CCCS(=O)(=O)Nc1ccc(F)c(C(=O)c2c[nH]c3ncc(-c4ccc(Cl)cc4)cc23)c1F      f
17  COc1cc2nccc(Oc3ccc(NC(=O)Nc4cc(C)on4)c(Cl)c3)c2cc1OC      f
18  COC(=O)N[C@@H](C)CNc1nccc(-c2cn(C(C)C)nc2-c2cc(Cl)cc(NS(C)(=O)=O)c2F)n1      f
19  C[C@@H](c1ccc2nccn2c1)n1nnc2ncc(-c3cnn(C)c3)nc21      f
